System: U-2932
assay-method-text: growth inhibition by drug alone (1 - RLU/untreated control) (fraction); higher = stronger inhibition
condition-parameters: 10 nM; time (day): 6; 177Lu-lilotomab satetraxetan 0 ug/ml
Structures can show the parent of a compound that is named as a salt.
Catalogue of growth inhibition by drug alone values
parameter: growth inhibition by drug alone

compound: CCCC(CCC)C(=O)O [Valproic acid sodium salt (Sodium valproate)]
study-system: U-2932
readout-value: -0.0189
//
compound: N#CC[C@H](C1CCCC1)n1cc(-c2ncnc3[nH]ccc23)cn1
study-system: U-2932
readout-value: -0.139
//
compound: CCN1CCN(Cc2ccc(-c3cc4c(N[C@H](C)c5ccccc5)ncnc4[nH]3)cc2)CC1
study-system: U-2932
readout-value: 0.0324
//
compound: Cn1cncc1[C@@](N)(c1ccc(Cl)cc1)c1ccc2c(c1)c(-c1cccc(Cl)c1)cc(=O)n2C [Tipifarnib (Zarnestra)]
study-system: U-2932
readout-value: -0.0584
//
compound: C[C@@H]1CN(CC(=O)Nc2ccc3c(c2)Cc2cccc(-c4cc(=O)cc(N5CCOCC5)o4)c2S3)C[C@H](C)O1
study-system: U-2932
readout-value: -0.257
//
compound: OCCn1cc(-c2ccc3c(c2)CC/C3=N\O)c(-c2ccncc2)n1
study-system: U-2932
readout-value: -0.152
//
compound: CCCCc1nc2cc(/C=C/C(=O)NO)ccc2n1CCN(CC)CC
study-system: U-2932
readout-value: -0.128
//
compound: CC[C@]1(O)C[C@H]2CN(CCc3c([nH]c4ccccc34)[C@@](C(=O)OC)(c3cc4c(cc3OC)N(C=O)[C@H]3[C@@](O)(C(=O)OC)[C@H](OC(C)=O)[C@]5(CC)C=CCN6CC[C@]43[C@@H]65)C2)C1
study-system: U-2932
readout-value: 0.978
//
compound: CN(C)CCCCSC(=N)N
study-system: U-2932
readout-value: -0.016
//
compound: Cc1nc(Nc2ncc(C(=O)Nc3c(C)cccc3Cl)s2)cc(N2CCN(CCO)CC2)n1
study-system: U-2932
readout-value: -0.0827
//
compound: Cc1ccc(-c2csc3ncnc(SCCC(=O)O)c23)cc1
study-system: U-2932
readout-value: -0.0333
//
compound: CNCc1ccc(-c2[nH]c3cc(F)cc4c3c2CCNC4=O)cc1
study-system: U-2932
readout-value: 0.155
//
compound: O=C(O)c1ccc2c(c1)nc(Nc1cccc(Cl)c1)c1ccncc12 [cx-4945 (Silmitasertib)]
study-system: U-2932
readout-value: 0.0386
//
compound: COC(=O)C1=C(C)NC(C)=C(C(=O)OCCCN2CCC(c3ccccc3)(c3ccccc3)CC2)[C@H]1c1cccc([N+](=O)[O-])c1 [S-(+)-Niguldipine hydrochloride]
study-system: U-2932
readout-value: -0.116
//
compound: CN1CCN(CCOc2cc(OC3CCOCC3)c3c(Nc4c(Cl)ccc5c4OCO5)ncnc3c2)CC1
study-system: U-2932
readout-value: -0.381
//
compound: CN(NC(=O)CC(=O)NN(C)C(=S)c1ccccc1)C(=S)c1ccccc1
study-system: U-2932
readout-value: 0.825
//
compound: C=CC(=O)N1CCC[C@@H](n2nc(-c3ccc(Oc4ccccc4)cc3)c3c(N)ncnc32)C1
study-system: U-2932
readout-value: 0.634
//
compound: NC(=O)c1ccc(I)c([N+](=O)[O-])c1
study-system: U-2932
readout-value: -0.012
//
compound: COc1nc(C)cnc1NS(=O)(=O)c1cccnc1-c1ccc(-c2nnco2)cc1 [Zibotentan (ZD4054)]
study-system: U-2932
readout-value: -0.23
//
compound: Cc1c(C(=O)Nc2ccc(N3C[C@@H](C)O[C@@H](C)C3)nc2)cccc1-c1ccc(OC(F)(F)F)cc1
study-system: U-2932
readout-value: -0.121
//
compound: CCc1c2c(nc3ccc(OC(=O)N4CCC(N5CCCCC5)CC4)cc13)-c1cc3c(c(=O)n1C2)COC(=O)[C@]3(O)CC [Irinotecan HCl Trihydrate (Campto)]
study-system: U-2932
readout-value: -0.0905
//
compound: Nc1nc(Cl)nc2c1ncn2[C@@H]1O[C@H](CO)[C@@H](O)[C@@H]1F
study-system: U-2932
readout-value: -0.0594
//
compound: C#Cc1cccc(Nc2ncnc3cc(OC)c(OCCCCCCC(=O)NO)cc23)c1
study-system: U-2932
readout-value: 0.0129
//
compound: COc1ccc2c3n(c(=NC(=O)c4cccnc4)nc2c1OC)CCN3
study-system: U-2932
readout-value: -0.132
//
compound: CCN(CC)CCCC(C)Nc1nc(C)cc(Nc2ccc3nc(C)cc(N)c3c2)n1 (stereo unspecified)
study-system: U-2932
readout-value: -0.134
//
compound: OCCn1cc(-c2cnc3nnn(Cc4ccc5ncccc5c4)c3n2)cn1
study-system: U-2932
readout-value: -0.156
